- Test system: OVCAR-5
- ASSAY_PROTOCOL: NCI tumour cell line growth inhibition, 48 h
The source made the active and inactive calls. Rule as the data show it: active = GI50 up to about 1.1 µM and inactive = higher.
Parameter call: string, one of active, inactive

CC(C)[C@](O)(C(=O)OCC1=CC[N+]2([O-])CC[C@@H](O)[C@@H]12)[C@H](C)O (stereo not given in full) [INDICINE N-OXIDE]    inactive
CCOC(=O)CCC(NC(=O)c1ccc(OCc2nc3cc(C(F)(F)F)ccc3nc2-c2ccccc2)cc1)C(=O)OCC (stereo not given)    inactive

What outcome does the record of this test show for CN(C)C(=O)C(NCCO)c1ccccc1 (stereo not given) ?
inactive

Would you kindly repeat that for `O=C(O)c1cc(=O)c2[nH]c3ccccc3c2s1` ?
inactive

Would you kindly repeat that for `CC(C)/C(Cl)=N\OC(=O)NNc1ccccc1` ?
inactive

Would you kindly repeat that for CN1CCC(c2c(O)cc(O)c3c(=O)cc(-c4ccccc4Cl)oc23)C(O)C1 (stereo not given) ?
active

Would you kindly repeat that for `O=C1[C@@H]2[C@@H](c3ccccc3)[C@]2(Cl)C(=O)[C@H]2[C@H](c3ccccc3)[C@@]12Cl` ?
inactive

Would you kindly repeat that for `C=CCn1c(=O)c2ccccc2[n+]2c(C)c(C(=O)OCC)sc12` ?
inactive

Would you kindly repeat that for O=C1C(/N=N/c2ccc(-c3nc4ccccc4o3)cc2)NC(=S)N1c1ccccc1 (stereo not given) ?
inactive

Would you kindly repeat that for `CCCCC(=O)NC1(c2cc3ccccc3s2)CCCCC1` ?
inactive
